Test system: biotinyl-Ile-oxazolone
method.description: self-aminoacylation, catalytic enhancement (BIO) (fold over background); higher = more active; k-Seq, kA / k0A0; sequences stand for … in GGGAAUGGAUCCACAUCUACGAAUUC…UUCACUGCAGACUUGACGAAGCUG
This sample holds only a part of the variants without activity.
List of self-aminoacylation values.
measured.metric: self-aminoacylation

residue.codes	test.result
AAGUUUGCGAAUAGUCACAAG [Fam3.1 aminoacylation ribozyme variant]	1.17
AUUACCCUGGUGAUCGAGUGU [Fam2.1 aminoacylation ribozyme variant]	1.51
AUUACUCUUGUCAUCGAGUGA [Fam2.1 aminoacylation ribozyme variant]	3.58
CCACAUUUCAAGCAAUCGUUC [Fam1B.1 aminoacylation ribozyme variant]	0.94
CAACACUUCAAGCAAUCGCUC [Fam1B.1 aminoacylation ribozyme variant]	1.85
AAGUUUGCUAAUAGUCGUAAA [Fam3.1 aminoacylation ribozyme variant]	0.909
AUUCACUUAGGUCAUGGGGUG [Fam2.2 aminoacylation ribozyme variant]	3.61
AUUACCCUGCUCAUCGCGUGA [Fam2.1 aminoacylation ribozyme variant]	7.11
CCACACCUCAAGCAAUUGGUC [Fam1B.1 aminoacylation ribozyme variant]	0.937
CAGUUUGCUGAUAGUCGCAAG [Fam3.1 aminoacylation ribozyme variant]	1.34
AUUGACAUAGGUCAUCGGGUG [Fam2.2 aminoacylation ribozyme variant]	5.14
AGUCACCUAGGGCAUCGGGUG [Fam2.2 aminoacylation ribozyme variant]	4.43
CCACCCUUCAAGCAAUCGCUC [Fam1B.1 aminoacylation ribozyme variant]	1.65
AUUCACGUAGGUCAUAGGGUG [Fam2.2 aminoacylation ribozyme variant]	1.67
ACCCACUUCAAGCAAUCGGUC [Fam1B.1 aminoacylation ribozyme variant]	1.11
AUUCCCCUAGGUCAUCGGGUC [Fam2.2 aminoacylation ribozyme variant]	4.5
AAGUUUGCUAAUAUUCUCAAG [Fam3.1 aminoacylation ribozyme variant]	1.1
AAGUUUGCUAAUAGGGGCAAG [Fam3.1 aminoacylation ribozyme variant]	0.686

* * *

List of self-aminoacylation values.
System: biotinyl-Met-oxazolone
method.description: self-aminoacylation, catalytic enhancement (BMO) (fold over background); higher = more active; k-Seq, kA / k0A0; sequences stand for … in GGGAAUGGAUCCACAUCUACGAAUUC…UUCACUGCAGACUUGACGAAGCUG
Fewer inactive variants are shown than the library holds.

residue.codes	measurement.target	self-aminoacylation
AAGUUUACUAAUAGACGCAAG [Fam3.1 aminoacylation ribozyme variant]	biotinyl-Met-oxazolone	0.816
AUUAACCUAGGUCAUCAGGUG [Fam2.2 aminoacylation ribozyme variant]	biotinyl-Met-oxazolone	1.35
AAGUUUGCUAAACGUCGCAAG [Fam3.1 aminoacylation ribozyme variant]	biotinyl-Met-oxazolone	0.608
CGACUCUUCAAGCAAUCGGUC [Fam1B.1 aminoacylation ribozyme variant]	biotinyl-Met-oxazolone	1.02
AUUAACCUAGGUCAUCGGUUG [Fam2.2 aminoacylation ribozyme variant]	biotinyl-Met-oxazolone	1.07
CGACACUUCAAUCAAUCGGUC [Fam1B.1 aminoacylation ribozyme variant]	biotinyl-Met-oxazolone	0.958
UCACACUUCAAGCAAUCGUUC [Fam1B.1 aminoacylation ribozyme variant]	biotinyl-Met-oxazolone	0.602
AAGAUUGCUAAUAGUCGCGAG [Fam3.1 aminoacylation ribozyme variant]	biotinyl-Met-oxazolone	1.94
CCACACUGGAAGCAAUCGGUC [Fam1B.1 aminoacylation ribozyme variant]	biotinyl-Met-oxazolone	0.78
AAGUUUGCUAAGAGACGCAAG [Fam3.1 aminoacylation ribozyme variant]	biotinyl-Met-oxazolone	0.544
CCAUACUUCAAGCACUCGGUC [Fam1B.1 aminoacylation ribozyme variant]	biotinyl-Met-oxazolone	0.904
AAUACCCUAGUCAUCGAGUGA [Fam2.1 aminoacylation ribozyme variant]	biotinyl-Met-oxazolone	4.24
AACUUUGCUAAUAUUCGCAAG [Fam3.1 aminoacylation ribozyme variant]	biotinyl-Met-oxazolone	1.51
AAAUUUGCUAAUAGUCGCAAA [Fam3.1 aminoacylation ribozyme variant]	biotinyl-Met-oxazolone	3.08
CUAUUUCAAACAAUGGGUCUG [Fam1A.1 aminoacylation ribozyme variant]	biotinyl-Met-oxazolone	0.836
AAGUUUGGUAAGAGUCGCAAG [Fam3.1 aminoacylation ribozyme variant]	biotinyl-Met-oxazolone	1.3
CUAGUUCAAACAAUCGGUCUC [Fam1A.1 aminoacylation ribozyme variant]	biotinyl-Met-oxazolone	0.795
AAGUAUGCGAAUAGUCGCAAG [Fam3.1 aminoacylation ribozyme variant]	biotinyl-Met-oxazolone	1.13

* * *

List of self-aminoacylation values.
Test system: biotinyl-Leu-oxazolone
method.description: self-aminoacylation, catalytic enhancement (BLO) (fold over background); higher = more active; k-Seq, kA / k0A0; sequences stand for … in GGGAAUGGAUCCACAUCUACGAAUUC…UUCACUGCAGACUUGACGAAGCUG
Variants at the floor of the assay were thinned out.

residue.codes	self-aminoacylation
AUUGACCUAGGUCAUGGGGUG [Fam2.2 aminoacylation ribozyme variant]	3.32
CGACACUUCAAUCAAUCGGUC [Fam1B.1 aminoacylation ribozyme variant]	1.15
CUCCUUCAUACAAUCGGUCUG [Fam1A.1 aminoacylation ribozyme variant]	0.771
AUUAGCCUGGUCAUCGCGUGA [Fam2.1 aminoacylation ribozyme variant]	22.3
AAGUUUGUUAAUAGUCGCAAU [Fam3.1 aminoacylation ribozyme variant]	1.51
ACUCACCUAGGUCAUUGGGUG [Fam2.2 aminoacylation ribozyme variant]	2.91
AUUACCCUGGUCAGCAAGUGA [Fam2.1 aminoacylation ribozyme variant]	4
UAGUUUGCUAAUAGUCCCAAG [Fam3.1 aminoacylation ribozyme variant]	0.805
AGUACCCUGGUCAUCGAGUAA [Fam2.1 aminoacylation ribozyme variant]	2.52

* * *

List of self-aminoacylation values.
System: biotinyl-Val-oxazolone
method.description: self-aminoacylation, catalytic enhancement (BVO) (fold over background); higher = more active; k-Seq, kA / k0A0; sequences stand for … in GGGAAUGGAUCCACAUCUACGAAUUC…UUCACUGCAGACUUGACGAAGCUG
Variants at the floor of the assay were thinned out.
measured.metric: self-aminoacylation

residue.codes	test.result
CCACUUCAAACACUCGGUCUG [Fam1A.1 aminoacylation ribozyme variant]	2.14
AUUAACAUAGGUCAUCGGGUG [Fam2.2 aminoacylation ribozyme variant]	3.51
CUACUUCAAACAAUUAGUCUG [Fam1A.1 aminoacylation ribozyme variant]	0.901
AUUGCCCUGGUCAUAGAGUGA [Fam2.1 aminoacylation ribozyme variant]	4.65

* * *

Test system: biotinyl-Leu-oxazolone
method.description: self-aminoacylation, catalytic enhancement (BLO) (fold over background); higher = more active; k-Seq, kA / k0A0; sequences stand for … in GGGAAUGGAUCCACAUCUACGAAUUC…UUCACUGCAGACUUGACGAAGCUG
Fewer inactive variants are shown than the library holds.
Decision: self-aminoacylation >= 1 yields 1 (yes), all other cases yield 0 (no).

residue.codes	class.label
CCACGCUUCAACCAAUCGGUC [Fam1B.1 aminoacylation ribozyme variant]	1 (yes)
CCACACCUCAAGCAAUCAGUC [Fam1B.1 aminoacylation ribozyme variant]	0 (no)
CCACACUUCGAGCAAUCGGCC [Fam1B.1 aminoacylation ribozyme variant]	1 (yes)
AAGUUUCCUAAUAGACGCAAG [Fam3.1 aminoacylation ribozyme variant]	0 (no)
CCACUUCAAACCAUCGGUCUG [Fam1A.1 aminoacylation ribozyme variant]	1 (yes)
AAGUUUGCAAGUAGUCGCAAG [Fam3.1 aminoacylation ribozyme variant]	0 (no)
AUUCACCUAGGUUAUUGGGUG [Fam2.2 aminoacylation ribozyme variant]	1 (yes)
ACUACGCUGGUCAUCGAGUGA [Fam2.1 aminoacylation ribozyme variant]	1 (yes)

* * *

System: biotinyl-Leu-oxazolone
method.description: self-aminoacylation, catalytic enhancement (BLO) (fold over background); higher = more active; k-Seq, kA / k0A0; sequences stand for … in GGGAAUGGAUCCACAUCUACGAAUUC…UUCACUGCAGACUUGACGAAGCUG
This sample holds only a part of the variants without activity.
measured.metric: self-aminoacylation

residue.codes	measured.metric	test.result
CAGUUUGCUGAUAGUCGCAAG [Fam3.1 aminoacylation ribozyme variant]	self-aminoacylation	1.17
CAACACUUCAAGCAAUCGCUC [Fam1B.1 aminoacylation ribozyme variant]	self-aminoacylation	2.04
CUACUUCAGACAAUGGGUCUG [Fam1A.1 aminoacylation ribozyme variant]	self-aminoacylation	0.916
AUUGACCUAGGUCAACGGGUG [Fam2.2 aminoacylation ribozyme variant]	self-aminoacylation	2.43

* * *

Tested on: biotinyl-Val-oxazolone
method.description: self-aminoacylation, catalytic enhancement (BVO) (fold over background); higher = more active; k-Seq, kA / k0A0; sequences stand for … in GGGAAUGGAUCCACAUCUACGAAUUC…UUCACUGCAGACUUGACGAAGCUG
This sample holds only a part of the variants without activity.
List of self-aminoacylation values.

residue.codes	self-aminoacylation
AUAACCCAGGUCAUCGAGUGA [Fam2.1 aminoacylation ribozyme variant]	2.95
AAGUUUGCUUAUAGUGGCAAG [Fam3.1 aminoacylation ribozyme variant]	0.711
CUUCACCUAGGUCACCGGGUG [Fam2.2 aminoacylation ribozyme variant]	3.81
CCACAAUUCAAGCAAUGGGUC [Fam1B.1 aminoacylation ribozyme variant]	1.03
CCUCACUUCAAGGAAUCGGUC [Fam1B.1 aminoacylation ribozyme variant]	0.869
CCACACUUCAAGCAAUCGGCG [Fam1B.1 aminoacylation ribozyme variant]	2.18
AUUACUCUGUUCAUCGAGUGA [Fam2.1 aminoacylation ribozyme variant]	1.94
AUGCACCUAGUUCAUCGGGUG [Fam2.2 aminoacylation ribozyme variant]	2.37
AUUGCCCUGGUCAUUGAGUGA [Fam2.1 aminoacylation ribozyme variant]	4.2
